This collection of values is drawn from patent US8609635B2.

System: HCV chimeric replicon with NS5A of genotype 3a (NC00982)
Assay: Cell-based HCV replicon assay (TaqMan), chimeric replicon genotype 3a (NC00982)
Settings: Hepatitis C virus, 72 h, read-out: HCV replicon EC50 3a (NC00982), chimeric replicon 3a (NC00982); replicon RNA by TaqMan, day 3
Attribute: pEC50
Keep it numeric: pEC50 is minus log10 of the concentration in mol/L.

MOLECULE	MEASUREMENT KIND	REPORTED VALUE
COC(=O)N[C@H](C(=O)N1CC(F)(F)C[C@H]1c1nc2ccc3cc(-c4ccc5c(ccc6nc([C@@H]7C[Si](C)(C)CN7C(=O)[C@@H](NC(=O)OC)C(C)C)[nH]c65)c4)ccc3c2[nH]1)C(C)C [Compound 70]	pEC50	9.93

Identify measured pEC50 associated with COC(=O)N[C@H](C(=O)N1C[Si](C)(C)C[C@H]1c1ncc(-c2ccc(-c3ccc4c(ccc5nc([C@H]6[C@@H]7C[C@@H]([C@@H](F)[C@H]7F)N6C(=O)[C@@H](NC(=O)OC)C(C)C)[nH]c54)c3)cc2)[nH]1)C(C)C [Compound 102]
8.12
